# Tested on: Platelet
# assay-method-text: Inhibition of ADP-induced New Zealand rabbit platelet aggregation at 2 mM treated for 1 min prior to ADP challenge by turbidimetric method relative to control
# Format: functional
# condition-details: Oryctolagus cuniculus
result-type: inhibition at 2000 µM (%)
Numbers only, in %.

Examples with answers:
smiles_representation=CC(C)(C)/[N+]([O-])=C/c1ccccc1 observed=33.9
smiles_representation=CC(=O)Oc1ccccc1C(=O)O observed=24.8
smiles_representation=Cc1nc(C)c(/C=[N+](\[O-])C(C)(C)C)nc1C observed=30
smiles_representation=Cc1nc(C)c(C)nc1C observed=36.2

Now turn to the next compound.
query: State, in one line, measured inhibition at 2000 µM of `CC1=NN(c2ccccc2)C(=O)C1`
result: 32.4
